- targetOrSystem: rFzd-1 (frizzled-1 receptor) (rat, UniProt Q08463 69-641)
- Sequence (Q08463 69-641): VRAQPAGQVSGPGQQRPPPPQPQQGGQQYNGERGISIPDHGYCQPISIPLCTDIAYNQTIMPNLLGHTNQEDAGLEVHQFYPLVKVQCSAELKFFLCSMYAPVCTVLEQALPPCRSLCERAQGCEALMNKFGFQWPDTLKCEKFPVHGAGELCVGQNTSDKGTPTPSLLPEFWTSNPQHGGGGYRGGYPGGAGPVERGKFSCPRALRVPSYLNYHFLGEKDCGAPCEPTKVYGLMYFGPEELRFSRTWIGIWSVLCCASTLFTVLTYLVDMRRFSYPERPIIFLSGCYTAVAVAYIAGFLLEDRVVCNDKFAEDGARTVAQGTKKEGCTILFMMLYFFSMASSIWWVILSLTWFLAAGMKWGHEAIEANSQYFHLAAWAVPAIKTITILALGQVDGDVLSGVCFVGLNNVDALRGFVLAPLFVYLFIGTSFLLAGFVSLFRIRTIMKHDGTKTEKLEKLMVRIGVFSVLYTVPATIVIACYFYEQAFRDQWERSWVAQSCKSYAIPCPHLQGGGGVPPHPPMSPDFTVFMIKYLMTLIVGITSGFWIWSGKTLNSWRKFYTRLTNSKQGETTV
- experimentalDetails: cell-based or functional assay
measureName: % of inhibition of Wnt3a-induced luciferase activity (peptide at 1.10^-9 M) (%)

A selection of reference data follows.
Suppose we examine the binder CNKTSEGMDACEL [UM206 (10 G = A)] ; what % of inhibition of Wnt3a-induced luciferase activity (peptide at 1.10^-9 M) value has been reported?
69.9

Suppose we examine the binder CNKTSEAMDGCEL [UM206 (7 G = A)] ; what % of inhibition of Wnt3a-induced luciferase activity (peptide at 1.10^-9 M) value has been reported?
52.6

Suppose we examine the binder CNKTSEGMDGAEL [UM206 (11 C = A)] ; what % of inhibition of Wnt3a-induced luciferase activity (peptide at 1.10^-9 M) value has been reported?
67.2

Suppose we examine the binder CNKTSEGMDGCEA [UM206 (13 L = A)] ; what % of inhibition of Wnt3a-induced luciferase activity (peptide at 1.10^-9 M) value has been reported?
65.9

Suppose we examine the binder ANKTSEGMDGCEL [UM206 (1 C = A)] ; what % of inhibition of Wnt3a-induced luciferase activity (peptide at 1.10^-9 M) value has been reported?
70.8

P. CAKTSEGMDGCEL [UM206 (2 N = A)]
Q. CNKASEAMAGCEL [UM206 (4 T = A, 7 G = A, 9 D = A)]
R. CNKTSEGMDGC [UM206 - (label cut short in Table 3; taken as UM206 with the C-terminal Glu-Leu deleted)]
S. ANKTSEGMDGAEL [UM206 (C = A)]
T. CNVSSHGIDGCDL [peptide CNVSSHGIDGCDL (SEQ ID NO: 18), derived from the area of Wnt3a homologous to UM206]
Rank the 5 binders: largest % of inhibition of Wnt3a-induced luciferase activity (peptide at 1.10^-9 M) first, smallest last. Show the ranking through the labels, in the order asked for.
P, T, R, Q, S
